// data source = paper doi:10.1101/2021.08.28.457928

Catalogue of binders with associated pKd
# Assayed Target: T1, full-length mouse SNX27 (mouse, UniProt Q3UHD6 1-539)
# T1 construct: SNX27, mouse, full length; Vector pMCSG7, ligation independent cloning; also called mSNX27FL
# Protocol Notes: ITC; 800 μM SNX1 or SNX2 peptide titrated into 20 μM full-length mouse SNX27; 25 °C; 50 mM HEPES pH 7.5, 200 mM NaCl, 5% glycerol, 1 mM β-ME with 1:10 peptide buffer (100 mM Tris-HCl pH 10.6); single-site model
# Run Conditions: both partners purified
pKd: −log10 of the molar value.
Endpoint: pKd

INSERT INTO results (binder, endpoint, obs_value) VALUES
  ('NGIHEEQDQEPQDLFADA (SNX1, human, residues 75 to 92; also called SNX1 75 to 92; hSNX1_(75-92); source: synthetic peptide (Genscript)) [SNX1_(75-92) peptide]', 'pKd', 4.88),
  ('TDFEDLEDGEDLFTSTVS (SNX2, human, residues 16 to 33; also called SNX2 16 to 33; first aDLF motif of SNX2; source: synthetic peptide (Genscript)) [SNX2_(16-33) peptide]', 'pKd', 4.42),
  ('TEVVLDDDREDLFAEATEEVS (SNX2, human, residues 62 to 82; also called SNX2 62 to 82; second aDLF motif of SNX2; source: synthetic peptide (Genscript)) [SNX2_(62-82) peptide]', 'pKd', 4.65),
  ('EAGDSDTEGEDIFTGAA (SNX1, human, residues 35 to 51; also called first aDLF motif of human SNX1; source: synthetic peptide (Genscript)) [SNX1_(35-51) peptide]', 'pKd', 4.48);
